FYI, the data here is from PubChem BioAssay (NCI).

// reported TGI per item
System: MDA-N
Assay: NCI tumour cell line growth inhibition, 48 h

{"MOLECULE": "CC(=O)C1C(=O)C(=O)N(c2ccc([N+](=O)[O-])cc2Cl)C1=O (centres undefined)", "STUDY_TARGET": "MDA-N", "TGI": "> 100 µM"}
{"MOLECULE": "C=C(C)C1CCC2(CO)C(O)CC3(C)C(CCC4C5(C)CCC(O)C(C)(C)C5CCC43C)C12 (centres undefined)", "STUDY_TARGET": "MDA-N", "TGI": "> 100 µM"}
{"MOLECULE": "CCC(c1nc2ccccc2c(=O)n1NC(=O)C(C)(C)C)C1(O)CCCCC1 (centres undefined)", "STUDY_TARGET": "MDA-N", "TGI": "> 100 µM"}
{"MOLECULE": "CN(C)Cc1cc(C(=O)/C=C/c2c(F)cccc2Cl)cc(CN(C)C)c1O", "STUDY_TARGET": "MDA-N", "TGI": "29.1 µM"}

----------
System: NCI-H522 lung
Assay: NCI tumour cell line growth inhibition, 48 h

{"COMPOUND": "CCN1CCN(c2cc(C)nc(NCc3cc(Nc4ccnc5cc(Cl)ccc45)ccc3F)n2)CC1", "TGI": "36 µM"}
{"COMPOUND": "CN(C)S(=O)(=O)c1cccc(-c2nc3sc4c(c3c(=O)[nH]2)CCCC4)c1", "TGI": "> 100 µM"}
{"COMPOUND": "CS(=O)(=O)OC1CCN(C2(c3cccc(O)c3)CCCCC2)CC1", "TGI": "> 100 µM"}
{"COMPOUND": "C/C(=N\\Nc1ncnc2ccccc12)c1ccccn1", "TGI": "1.53 µM"}
{"COMPOUND": "O=C(Nc1ccc(Cl)cc1)c1cc(S(=O)(=O)NC2=NC(c3ccccc3)c3cc(Cl)ccc3N2)c(SSc2cc(Cl)c(C(=O)Nc3ccc(Cl)cc3)cc2S(=O)(=O)NC2=NC(c3ccccc3)c3cc(Cl)ccc3N2)cc1Cl (configuration not stated)", "TGI": "> 100 µM"}
{"COMPOUND": "Cn1c(=O)c2[nH]cnc2n(CC(=O)O)c1=O", "TGI": "> 100 µM"}
{"COMPOUND": "CCc1ccccc1NC(=O)C1=C(C)NC(C)=C(C(=O)Nc2ccccc2CC)C1c1ccc(NC(C)=O)cc1", "TGI": "71.1 µM"}
{"COMPOUND": "CCCCCCCCCCOC1C(C(C)OCCCN(C)C)OC2OC3(CCCCC3)OC21 (configuration not stated)", "TGI": "34 µM"}
{"COMPOUND": "NC(N)=N/N=C(/c1ccccc1)c1ccc(O)cc1O", "TGI": "34.5 µM"}
{"COMPOUND": "N=C(N)Cn1cnc2ccccc21", "TGI": "> 100 µM"}
{"COMPOUND": "CN(c1ccccc1Cl)S(=O)(=O)c1ccccc1", "TGI": "> 100 µM"}
{"COMPOUND": "CNC(=O)C(NC(=O)[C@H](CC(C)C)NC(=O)[C@@H](S)CCN1C(=O)N(C)C(C)(C)C1=O)C(C)(C)C (some centres not stated)", "TGI": "> 100 µM"}

----------
Test system: NCI-H522 lung
Assay: NCI tumour cell line growth inhibition, 48 h
// reported TGI per item
VALUE_KIND: TGI

{"COMPOUND": "Cc1cccc(NC(=O)Cc2nc3ccccc3s2)c1C", "RESULT": "> 100 µM"}
{"COMPOUND": "N#CCCCCC12C3C(=O)N(c4ccccc4)C(=O)C3ON1O[C@@H]1C(=O)N(c3ccccc3)C(=O)[C@@H]12 (stereo partly specified)", "RESULT": "> 100 µM"}
{"COMPOUND": "COc1cc(/C=N/O)nc(-c2ccccn2)c1", "RESULT": "> 100 µM"}
{"COMPOUND": "COc1ccc(CCNC(=S)/N=C\\C2=C(O)c3ccccc3C2=O)cc1OC", "RESULT": "> 100 µM"}
{"COMPOUND": "COC(=O)C(C(=O)C(=O)Nc1ccc(C)cc1C)c1nc2ccc([N+](=O)[O-])cc2[nH]c1=O (stereo unspecified)", "RESULT": "> 100 µM"}
{"COMPOUND": "CN(C)CCC(=O)NCc1c2nc3ccccc3nc2n2ccccc12", "RESULT": "> 100 µM"}
{"COMPOUND": "C[n+]1ccc2[nH]c3ccccc3c2c1", "RESULT": "> 100 µM"}
{"COMPOUND": "CN(C)C(=O)CO/N=C1/C(c2c(O)[nH]c3ccccc23)=Nc2ccccc21", "RESULT": "> 100 µM"}
{"COMPOUND": "COC(=O)C1CCC(N2C(=O)CCC2C(=O)OC)=N1 (stereo unspecified)", "RESULT": "> 100 µM"}
{"COMPOUND": "C#CCOc1cccc(Nc2ncnc3c2ncn3C2CCN(C(=O)CCl)C2)c1 (stereo unspecified)", "RESULT": "19.7 µM"}
{"COMPOUND": "O=C(OCc1c(-c2ccccc2)nn(-c2ccccc2)c1COC(=O)Oc1ccccc1)Oc1ccccc1", "RESULT": "> 100 µM"}
{"COMPOUND": "CCOC(CN(C)C(=O)OCC(Cl)(Cl)Cl)OCC", "RESULT": "> 100 µM"}
{"COMPOUND": "CC1(C)OCC(C2OC(=O)C(OCc3ccccc3)=C2OCc2ccccc2)O1 (stereo unspecified)", "RESULT": "78.4 µM"}
{"COMPOUND": "COc1cc(C(c2cc(OC)c(OC)c(OC)c2)N2C(=O)CCC2C(=O)O)cc(OC)c1OC (stereo unspecified)", "RESULT": "> 100 µM"}
{"COMPOUND": "CC(Nc1cc(=O)n(C)c(=O)[nH]1)c1ccccc1 (stereo unspecified)", "RESULT": "> 100 µM"}
{"COMPOUND": "CC(=N\\N=C\\c1ccccn1)/C(C)=N/N=C/c1ccccn1", "RESULT": "> 100 µM"}
{"COMPOUND": "Cc1sc2c(c1C)C(c1ccc(Cl)cc1)=N[C@@H](CC(=O)Nc1ccc(O)cc1)c1nnc(C)n1-2", "RESULT": "16.1 µM"}
{"COMPOUND": "CO[C@H]1/C=C/C[C@H](C)[C@@H](C)S(=O)(=O)NC(=O)c2ccc3c(c2)N(C[C@@H]2CC[C@H]21)C[C@@]1(CCCc2cc(Cl)ccc21)CO3", "RESULT": "3.3 µM"}
{"COMPOUND": "CCCCCC/C=C/CCCCCCCc1cccc(O)c1C(=O)O", "RESULT": "> 100 µM"}
{"COMPOUND": "CC(=O)C1C(=O)C(=O)N(c2ccc([N+](=O)[O-])cc2Cl)C1=O (stereo unspecified)", "RESULT": "> 100 µM"}
{"COMPOUND": "COc1ccc2c(c1)-c1c(c3ccccc3n1CCN1CCOCC1)CC2", "RESULT": "37.3 µM"}
{"COMPOUND": "CCOC(=O)c1cn2ncnc(Oc3ccc(NC(=O)NCCN(CC)CC)c(Cl)c3)c2c1C", "RESULT": "5.92 µM"}
{"COMPOUND": "CC[S+](C)c1ccc(-c2c3nc(c(-c4ccc([S+](C)CC)cc4)c4ccc([nH]4)c(-c4ccc([S+](C)CC)cc4)c4nc(c(-c5ccc([S+](C)CC)cc5)c5ccc2[nH]5)C=C4)C=C3)cc1 (stereo unspecified)", "RESULT": "> 100 µM"}
{"COMPOUND": "CC(C)(C)n1cc(-c2ccnc(NCCCNS(=O)(=O)c3ccc(Cl)cc3)c2)c(-c2cccc(O)c2)n1", "RESULT": "3.91 µM"}
{"COMPOUND": "CCOC(=O)c1ccc2c(=O)n3c(C(=O)OCC)ccc3c(=O)n12", "RESULT": "> 100 µM"}
{"COMPOUND": "CC1(C)CC(=O)C2=C(C1)N(c1ccccc1)C1(O)C=CC(=O)C3=C(O)c4ccccc4C(=O)C321 (stereo unspecified)", "RESULT": "45.8 µM"}

----------
Tested on: OVCAR-3 ovarian
Assay: NCI tumour cell line growth inhibition, 48 h
// reported TGI per item

{"COMPOUND": "Nc1n[n+]([O-])c2cnccc2[n+]1[O-]", "TGI": "> 100 µM"}
{"COMPOUND": "COc1cc(/C=N/O)nc(-c2ccccn2)c1", "TGI": "> 100 µM"}
{"COMPOUND": "CN(C(=O)C1CC1)C1C2CN3CCC(O2)C13 (stereo unspecified)", "TGI": "> 100 µM"}
{"COMPOUND": "CC1(C)C(C(=O)OC(C#N)c2cccc(OCC(=O)OCc3ccccc3)c2)C1(C)C (stereo unspecified)", "TGI": "> 100 µM"}
{"COMPOUND": "Oc1oc(-c2ccccc2)nc1/C=C1/C=NN=N1", "TGI": "> 100 µM"}
{"COMPOUND": "O=C(Cc1ccccc1)NN1C(=O)C(Cl)C1c1ccccc1 (stereo unspecified)", "TGI": "> 100 µM"}
{"COMPOUND": "FC(F)(F)c1nc2cc(SSc3cc4nc(C(F)(F)F)[nH]c4cc3Cl)c(Cl)cc2[nH]1", "TGI": "> 100 µM"}
{"COMPOUND": "C/C=C/COc1cc(NC(=S)c2ccoc2C)ccc1OC", "TGI": "> 100 µM"}
{"COMPOUND": "O=C(O)C1(CC(CCCN2CCCCC2)c2ccccc2)CCCC1 (stereo unspecified)", "TGI": "> 100 µM"}
{"COMPOUND": "CCOc1ccc(C(c2c(O)c3ccccc3oc2=O)c2c(O)c3ccccc3oc2=O)cc1", "TGI": "> 100 µM"}
{"COMPOUND": "OC(C1CCCC1=N/N=C1/CCCC1C(O)(C(F)(F)Cl)C(F)(F)Cl)(C(F)(F)Cl)C(F)(F)Cl (stereo unspecified)", "TGI": "> 10 µM"}
{"COMPOUND": "CN(c1ccccc1Cl)S(=O)(=O)c1ccccc1", "TGI": "> 100 µM"}
{"COMPOUND": "CCOC(CN(C)C(=O)OCC(Cl)(Cl)Cl)OCC", "TGI": "> 100 µM"}
{"COMPOUND": "COc1ccc(CCN2CCOCC2)cc1", "TGI": "> 100 µM"}
{"COMPOUND": "CCc1c(-c2coc(CC/C(C)=C/c3ccccc3)n2)oc(OC)c(C)c1=O", "TGI": "> 100 µM"}
{"COMPOUND": "CC(C)c1ccc(O)c(O)c(=O)c1 (tested in a mixture with another compound)", "TGI": "> 100 µM"}
